Numbers sourced from patent US20240270821A1.

tgt: human glucagon receptor (human) (UniProt P47871)
Sequence (P47871 26-477): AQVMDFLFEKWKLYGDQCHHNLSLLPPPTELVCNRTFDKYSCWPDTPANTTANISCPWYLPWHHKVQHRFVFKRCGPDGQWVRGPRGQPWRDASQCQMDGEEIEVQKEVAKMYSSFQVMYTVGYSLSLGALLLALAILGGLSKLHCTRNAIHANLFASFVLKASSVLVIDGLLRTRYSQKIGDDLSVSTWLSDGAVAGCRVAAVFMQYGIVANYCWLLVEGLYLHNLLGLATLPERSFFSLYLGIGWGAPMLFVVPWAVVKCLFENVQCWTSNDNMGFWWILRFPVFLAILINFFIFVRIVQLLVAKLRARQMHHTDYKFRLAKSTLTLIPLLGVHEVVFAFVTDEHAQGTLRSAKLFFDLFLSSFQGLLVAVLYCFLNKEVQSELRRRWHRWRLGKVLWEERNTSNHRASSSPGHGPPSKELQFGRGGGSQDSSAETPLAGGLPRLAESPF
procedure.text: cell-based or functional assay
Non-standard residues stand in square brackets, D forms with d. No end group written: not given here. αMePhe(2-F) = C[C@](N)(Cc1ccccc1F)C(=O)O; Aib = CC(C)(N)C(=O)O
property: Relative cAMP EC50 (nM)
Just the number please, in nM, no unit attached.

Below: 5 binders and their reported Relative cAMP EC50.
binder	Relative cAMP EC50 [nM]
YXQGTFTSDFSXXLDKKAQXAFIEYLLEXGPSSGXPPPSGS (Aib, Orn, alpha-methyl-Leu, lipidated Lys, C-terminal amide; synthetic construct; SITE 2: note = 2-Aminoisobutyric Acid; SITE 12: note = L-ornithine; SITE 13: note = alpha-methyl-leucine; SITE 17: note = Lysine is chemically modified through conjugation of the epsilon-amino group of the Lysine side chain with (2-[2-(2-Amino-ethoxy)-ethoxy]-acetyl)-(gamma-Glu)) [Example 239]	2.14
YXQGTXTSDXSIXLDXKAAXAFIEXLLEGGPSSGEPPPS (synthetic construct; SITE 2: note = 2-Aminoisobutyric Acid; SITE 6: note = alpha-methyl-2-fluoro-L-phenylalanine; SITE 10: note = 3-(4-Pyridyl)-L-alanine; SITE 13: note = alpha-methyl-leucine; SITE 16: note = L-ornithine; SITE 17: note = Lysine is chemically modified through conjugation of the epsil) [Example 1236]	0.947
YXQGTFTSDFSXXLDKKAQXAFIEWLLEGGPSSGAXPPSGE (synthetic construct; SITE 2: note = 2-Aminoisobutyric Acid; SITE 12: note = L-ornithine; SITE 13: note = alpha-methyl-leucine; SITE 17: note = Lysine is chemically modified through conjugation of the epsilon-amino group of the Lysine side chain with (2-[2-(2-Amino-ethoxy)-ethoxy]-acetyl)-(gamma-Glu)) [Example 136]	8.73
Y[Aib]QGT[αMePhe(2-F)]TSDYSKLLDEIAQKAFIEYLLEGGPSSGEPPPSEG-NH2 (not fully specified (residue 20)) [Example 303]	6.1
YXQGTFTSDXXQXLDXKAQXQFIEXLIEXGPSSGEPPPSGGGE (non-natural residues; Lys acylated with γGlu-C18 diacid; C-terminal amide; synthetic construct; SITE 2: note = 2-Aminoisobutyric Acid; SITE 10: note = 3-(4-Pyridyl)-L-alanine; SITE 11: note = alpha-methyl-L-serine; SITE 13: note = alpha-methyl-leucine; SITE 16: note = L-ornithine; SITE 17: note = Lysine is chemically modified through conjugation of the epsilon-amino group) [Example 1184]	1.5

## Task Tell me the measured Relative cAMP EC50 of YXQGTFTSDFSKXLDKKAQXAFIEYLLAGGPSSGEPPPSGE (Aib, αMeL; acylated Lys; C-terminal amide; synthetic construct; SITE 2: note = 2-Aminoisobutyric Acid; SITE 13: note = alpha-methyl-leucine; SITE 17: note = Lysine is chemically modified through conjugation of the epsilon-amino group of the Lysine side chain with (2-[2-(2-Amino-ethoxy)-ethoxy]-acetyl)-(gamma-Glu)-CO-(CH2) 18-CO2H; SITE 20: n) [Example 2] , please.
## Result 4.29
